Reference source: ChEMBL document CHEMBL4819034

A collection of compounds and their measured Stabilty
ASSAY METHOD TEXT: Metabolic stability in rat liver microsomes assessed as parent compound remaining
Format: ADME, Microsome
Lab book: enter the figure in %, no units written.

# example entries with known answers
• O=C(N[C@@H]1CC[C@@]2(S(=O)(=O)c3ccc(F)cc3)c3ccc(C(F)(C(F)(F)F)C(F)(F)F)cc3CC[C@@H]12)C1(O)CCNCC1 = 83
• [2H]C([2H])([2H])N1C(=O)C(F)CC1C(=O)N[C@@H]1CC[C@@]2(S(=O)(=O)c3ccc(F)cc3)c3ccc(C(F)(C(F)(F)F)C(F)(F)F)cc3CC[C@@H]12 (single isomer, unassigned) = 100
• O=C(N[C@@H]1CC[C@@]2(S(=O)(=O)c3ccc(F)cc3)c3ccc(C(F)(C(F)(F)F)C(F)(F)F)cc3CC[C@@H]12)C1(O)CCCCC1 = 22
• CC(C)(C(=O)N[C@@H]1CC[C@@]2(S(=O)(=O)c3ccc(F)cc3)c3ccc(C(F)(C(F)(F)F)C(F)(F)F)cc3CC[C@@H]12)N1CCNCC1 = 97
• CC(C)(O)C(=O)N[C@@H]1CC[C@@]2(S(=O)(=O)c3ccc(F)cc3)c3ccc(C(F)(C(F)(F)F)C(F)(F)F)cc3CC[C@@H]12 = 100

response.value for `CC(C)(N)C(=O)N[C@@H]1CC[C@@]2(S(=O)(=O)c3ccc(F)cc3)c3ccc(C(F)(C(F)(F)F)C(F)(F)F)cc3CC[C@@H]12` (field: Stabilty) = 100

###

ASSAY METHOD TEXT: AUC (0 to 24 hrs) in cynomolgus monkey at 2 mg/kg, po
Type: ADME, organism-based, Macaca fascicularis
Set-up: time < 24 hr, route oral, dose 2 mg/kg
EXPERIMENTAL CONTEXT: in vivo
MEASUREMENT TYPE: AUC(0-t) at 24 h (µM·h)
Lab book: enter the figure in µM·h, no units written.

response.value for `CC(C)(O)C(=O)N[C@@H]1CC[C@@]2(S(=O)(=O)c3ccc(F)cc3)c3ccc(C(F)(C(F)(F)F)C(F)(F)F)cc3CC[C@@H]12` (field: AUC(0-t) at 24 h) = 18

###

A collection of compounds and their measured Stabilty
ASSAY METHOD TEXT: Metabolic stability in rat liver microsomes assessed as parent compound remaining
Type: ADME, Microsome
Lab book: enter the figure in %, no units written.

* CC(=O)N[C@@H]1CC[C@@]2(S(=O)(=O)c3ccc(F)cc3)c3ccc(C(F)(C(F)(F)F)C(F)(F)F)cc3CC[C@@H]12 | 100
* CC(C)(C(=O)N[C@@H]1CC[C@@]2(S(=O)(=O)c3ccc(F)cc3)c3ccc(C(F)(C(F)(F)F)C(F)(F)F)cc3CC[C@@H]12)N1CCOCC1 | 0.4
* O=C(NCCO)N[C@@H]1CC[C@@]2(S(=O)(=O)c3ccc(F)cc3)c3ccc(C(F)(C(F)(F)F)C(F)(F)F)cc3CC[C@@H]12 | 41
* CC(C)(O)CNC(=O)N[C@@H]1CC[C@@]2(S(=O)(=O)c3ccc(F)cc3)c3ccc(C(F)(C(F)(F)F)C(F)(F)F)cc3CC[C@@H]12 | 42
* C[C@@H](O)C(=O)N[C@@H]1CC[C@@]2(S(=O)(=O)c3ccc(F)cc3)c3ccc(C(F)(C(F)(F)F)C(F)(F)F)cc3CC[C@@H]12 | 14

# input for lookup
response.value for `CNC(=O)N[C@@H]1CC[C@@]2(S(=O)(=O)c3ccc(F)cc3)c3ccc(C(F)(C(F)(F)F)C(F)(F)F)cc3CC[C@@H]12` (field: Stabilty) = 10
